molecular target: UniProtKB O00329; experiment: PI3Kδ kinase ADP-Glo assay (Reaction Biology Corporation); settings: read-out: PI3Kδ IC50
Sequence (O00329 whole entry): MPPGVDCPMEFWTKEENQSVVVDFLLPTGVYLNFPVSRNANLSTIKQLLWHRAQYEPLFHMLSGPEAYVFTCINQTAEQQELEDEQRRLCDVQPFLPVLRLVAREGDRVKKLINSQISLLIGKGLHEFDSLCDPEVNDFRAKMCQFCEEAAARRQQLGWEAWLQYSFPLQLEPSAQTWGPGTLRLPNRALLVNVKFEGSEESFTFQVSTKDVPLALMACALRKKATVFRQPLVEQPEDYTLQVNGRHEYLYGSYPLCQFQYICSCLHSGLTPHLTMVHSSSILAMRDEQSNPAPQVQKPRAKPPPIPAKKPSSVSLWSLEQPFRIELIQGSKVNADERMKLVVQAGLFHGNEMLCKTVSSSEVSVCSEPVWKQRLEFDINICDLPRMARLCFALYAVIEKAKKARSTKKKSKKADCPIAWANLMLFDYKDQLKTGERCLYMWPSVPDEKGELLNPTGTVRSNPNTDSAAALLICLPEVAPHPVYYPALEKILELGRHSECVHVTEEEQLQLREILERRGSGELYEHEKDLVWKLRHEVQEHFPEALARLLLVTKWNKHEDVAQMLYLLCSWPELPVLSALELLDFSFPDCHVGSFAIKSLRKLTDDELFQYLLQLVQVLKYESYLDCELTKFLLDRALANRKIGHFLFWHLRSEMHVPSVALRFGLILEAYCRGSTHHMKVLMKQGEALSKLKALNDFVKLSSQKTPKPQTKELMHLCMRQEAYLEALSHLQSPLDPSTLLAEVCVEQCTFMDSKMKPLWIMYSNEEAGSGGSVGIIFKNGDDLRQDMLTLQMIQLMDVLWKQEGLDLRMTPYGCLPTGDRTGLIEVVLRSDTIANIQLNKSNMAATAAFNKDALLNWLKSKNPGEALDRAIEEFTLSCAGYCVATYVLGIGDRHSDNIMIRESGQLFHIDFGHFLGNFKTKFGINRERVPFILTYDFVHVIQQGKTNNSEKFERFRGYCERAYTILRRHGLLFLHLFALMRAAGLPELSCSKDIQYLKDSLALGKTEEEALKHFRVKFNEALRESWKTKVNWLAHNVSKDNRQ
Sequence (P27986 whole entry partner): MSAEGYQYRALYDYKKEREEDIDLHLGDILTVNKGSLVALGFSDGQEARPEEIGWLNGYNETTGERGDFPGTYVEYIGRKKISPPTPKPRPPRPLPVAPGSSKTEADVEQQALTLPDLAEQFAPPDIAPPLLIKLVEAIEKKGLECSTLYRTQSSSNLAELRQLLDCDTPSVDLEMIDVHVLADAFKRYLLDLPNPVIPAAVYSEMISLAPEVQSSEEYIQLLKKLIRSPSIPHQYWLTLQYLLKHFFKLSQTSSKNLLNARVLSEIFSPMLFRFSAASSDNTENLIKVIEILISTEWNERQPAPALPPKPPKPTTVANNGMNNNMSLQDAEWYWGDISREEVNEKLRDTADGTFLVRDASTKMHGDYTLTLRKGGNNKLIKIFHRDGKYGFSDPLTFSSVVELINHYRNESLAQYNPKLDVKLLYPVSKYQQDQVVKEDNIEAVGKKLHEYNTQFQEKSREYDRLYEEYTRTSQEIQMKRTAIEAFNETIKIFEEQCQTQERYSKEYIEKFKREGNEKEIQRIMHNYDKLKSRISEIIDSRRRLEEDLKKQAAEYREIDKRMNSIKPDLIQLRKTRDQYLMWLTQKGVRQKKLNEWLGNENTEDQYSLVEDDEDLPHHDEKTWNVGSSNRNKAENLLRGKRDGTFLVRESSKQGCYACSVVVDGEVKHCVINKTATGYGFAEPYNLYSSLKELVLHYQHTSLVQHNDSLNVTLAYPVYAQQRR
Assignment: determine reported IC50 for the given compounds.
Output spec: scalar in µM, unitless text.

stdin: Using the record for CC(C)N1CCOc2c(F)cc(-c3nc(Nc4ccc(N5CCN(C(=O)CN(C)C)CC5)cc4)ncc3F)cc21 [Compound 440] , report its IC50.
stdout: 35

stdin: Requested read-out: IC50. Entry: CN1CCC(c2ccc(Nc3ncc(F)c(-c4cc(F)c5c(c4)N(C)CCO5)n3)cc2F)CC1 [Compound 466]
stdout: 1.11

stdin: Which IC50 value is on record for CN1CCC(c2ccc(Nc3ncc(F)c(-c4cc(F)c5c(c4)N(C4CCCC4)CCO5)n3)cc2F)CC1 [Compound 471] ?
stdout: 1.99

stdin: // lookup IC50 for CC(C)N1CCOc2c(F)cc(-c3nc(Nc4ccc(N5CCC(N(C)C)CC5)c(F)c4)ncc3F)cc21 [Compound 25]
stdout: 6.1

stdin: For the compound CCCN1CCOc2c(F)cc(-c3nc(Nc4ccc(N5CCC(N(C)C)CC5)c(F)c4)ncc3F)cc21 [Compound 468] , what IC50 is on record?
stdout: 3.79

stdin: So what's the measured IC50 for this one? CC(C)CN1CCOc2c(F)cc(-c3nc(Nc4ccc(N5CCC(N(C)C)CC5)c(F)c4)ncc3F)cc21 [Compound 480]
stdout: 1.16

stdin: Entry CC(C)N1CCOc2c(F)cc(-c3nc(Nc4cnn(C5CCC(O)CC5)c4)ncc3F)cc21 (stereo not drawn) [Compound 452] has what IC50?
stdout: 0.589
